// provenance: PubChem BioAssay

Record form. Attribute: inhibition. Fill in for each entry.
# target under test: Protein phosphatase methylesterase 1 (Homo sapiens) (UniProt Q9Y570)
# Sequence (Q9Y570 whole entry, looked up): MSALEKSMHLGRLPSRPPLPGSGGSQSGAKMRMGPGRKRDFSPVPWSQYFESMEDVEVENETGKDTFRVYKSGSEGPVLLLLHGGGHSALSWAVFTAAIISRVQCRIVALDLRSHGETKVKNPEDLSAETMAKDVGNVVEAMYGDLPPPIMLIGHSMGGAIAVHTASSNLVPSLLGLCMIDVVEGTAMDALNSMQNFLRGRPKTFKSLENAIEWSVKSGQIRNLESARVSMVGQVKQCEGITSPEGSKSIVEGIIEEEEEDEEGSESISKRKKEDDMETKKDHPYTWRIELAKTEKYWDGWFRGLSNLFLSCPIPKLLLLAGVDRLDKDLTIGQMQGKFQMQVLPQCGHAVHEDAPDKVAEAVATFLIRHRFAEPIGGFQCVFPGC
# assay overview: PME-1 inhibitor activity retest, confirmation, biochemical, fluorescence polarization, FP-Rh probe, triplicate (AID 2171);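 also: 0% = enzyme with DMSO and 100% = wells lacking PME-1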
# assay context: recombinant PME-1, FP-Rh probe fluorescence polarization; at 5.9 µM; stronger effect = higher value
Kindly answer with a numeric value in %, unit omitted.

Query "COc1cccc(CNC(=O)CCCc2cn(C)c3ccccc23)c1" yields inhibition of 6.78

COc1ccc(C2CC(c3ccc(OC)c(OC)c3)=NN2S(C)(=O)=O)cc1 (centres undefined) yielded inhibition of 22.9

Quick note, inhibition for CCC(CNc1cc(OC)cc2cccnc12)NC1CCCCC1 (centres undefined) landed at 9.75

Summary for this compound, "Cn1c(=O)c(NCCc2ccccc2)c2c3c(cccc31)C(=O)c1ccccc1-2" : inhibition is 177

Summary for this compound, CCCOc1ccc([C@@H]2C3CN(C(=O)OCC)CC=C3C(C#N)=C(N)C2(C#N)C#N)cc1OC (some centres undefined) : inhibition is 53.6

The reported inhibition of the compound "Cc1cc(C)c2c(N)c(-c3nc4ccccc4[nH]3)sc2n1" was 3.16

Value of inhibition reported for the compound Cc1[nH]c2c(C(=O)N3CCCC(CCC(=O)NCc4ccccc4F)C3)cccc2c1C (centres undefined) is 39.7

# inhibition of "Brc1ccc(N/N=C(/N=Nc2nn[nH]n2)c2ccccc2)cc1" = 57.1

Lookup result for "Nc1cc(N)cc(-c2nc3ccccc3[nH]2)c1" ; measured inhibition: 3.51

response.value for "COc1ccc(S(=O)(=O)N(C)C)cc1NC(=O)Cc1c[nH]c2ccccc12" (field: inhibition) = 85

The recorded inhibition for entry "COc1ccc(NC(=O)C2CCN(C(=O)c3cccs3)CC2)cc1OC" equals 5.2

For reference, reported inhibition for "COc1ccc(/C=N/Nc2cc(C)nc(-n3nc(C)cc3C)n2)c(OC)c1" stands at 41.6

Please fill in: inhibition reported for "N#Cc1ccccc1Cn1c(=O)n(-c2ccc(CC(=O)NCc3ccco3)cc2)c(=O)c2sccc21" = 38.4

The reported inhibition of the compound "Cn1c2ccccc2c2cc(/C=N/NC(=O)c3ccc(O)cc3O)ccc21" was 23

# inhibition (compound: "C/C(=N\Nc1ccccc1C(=O)O)c1ccncc1" ) is 1.32

inhibition for "Cc1c(C(=O)N/N=C/c2ccc(O)c(Br)c2)sc(N)c1C#N" is 49.7

# inhibition of "COc1ccc(N2CCN(c3ncnc4c3[nH]c3ccccc34)CC2)cc1" = 28

Input "O=C1NN(c2ccc(Cl)c(Cl)c2)C(=O)/C1=C/c1cccc(OC(=O)c2cccs2)c1" . Output inhibition: 8.75

Lab note: measured inhibition of "Clc1ccc2[nH]c3c(c2c1)CCc1cn[nH]c1-3" was 21.1

Form field inhibition, entry "COc1ccc2nc(N3C(=O)/C(=C/c4ccccc4)NC3=S)sc2c1" : 43.3

Memo: "O=C(COC(=O)c1cccc2c1C(=O)c1ccccc1C2=O)NC1CCCCC1" , reported inhibition: 56.5

For record "O=[N+]([O-])c1ccc(N/N=C/c2cccc(O)c2O)cc1" the listed inhibition is 23.3

GET /value?item= "Cc1ccc(NC(=O)COC(=O)c2cccc3c2C(=O)c2ccccc2C3=O)c(C)c1" &field=inhibition returns 91.2

For this compound ( "CCn1c(CSc2nnc(-c3ccncc3)n2CCOC)nc2cc(C(=O)O)ccc21" ), measured inhibition is 51.1

Lab note: measured inhibition of "CCCCN(CC)CCCNC(=O)c1cn(C)c2ccc(S(=O)(=O)N(C)C3CCCCC3)cc2c1=O" was 14.5

Query "Cc1ccc(Nc2nc(-c3ccc(O)cc3O)cs2)nc1" yields inhibition of 34

Notebook: "Cn1c(=O)c2c(nc(CN3CCN(C(c4ccccc4)c4ccccc4)CC3)n2CCCO)n(C)c1=O" , inhibition read as 23.8

The reported value for "Cc1cc(-c2ccccc2)nc(N/N=C/c2ccc(O)cc2O)n1" in terms of inhibition is 70.4

So, "COc1ccc(NC(=O)c2c[nH]n3c(=O)cc(C4CCN(C(=O)OC(C)(C)C)CC4)nc23)cc1Cl" ? Its inhibition was 25.1

Recorded inhibition (compound O=C1CN(C(=O)c2cc3ccccc3oc2=O)C(c2ccccc2)c2cc(F)ccc2N1 (centres undefined) ): 18.1

inhibition in this record for "COc1cccc2c1C(=O)c1c(O)c3c(c(O)c1C2=O)C[C@](O)(C(C)=O)C[C@H]3O[C@@H]1C[C@@H](N)[C@@H](O)[C@@H](C)O1" : 40.8

Recorded inhibition (compound "Cc1cc(C)nc(SCc2ccc(C(=O)N/N=C/c3cccc(O)c3O)cc2)n1" ): -47

Notebook: "CCOC(=O)c1ccc(Nc2cc3ccccc3c(=O)[nH]2)cc1" , inhibition read as 53.9

Noted for "C#CCN1c2ccccc2Sc2cccnc21" : its inhibition reads 1.92
